meta.source: patent US20240409548A1

Experiment: Aqueous solubility at various pH values (pH-solubility fit)
assayMetric: pKa

> print(dat)
                                 testsmiles  resultnumber
1  CCn1cc(S(=O)(=O)N2CCC3(CC2)C[C@@H](NC[C@H](O)COc2cccc(S(C)(=O)=O)c2)CO3)c(=O)c2ccccc21          7.44

* * *

Test: Aqueous solubility at various pH values (pH-solubility fit)
Settings: aqueous buffer
assayMetric: solubility

> print(dat)
                                 testsmiles     result
1  CCn1cc(S(=O)(=O)N2CCC3(CC2)C[C@@H](NC[C@H](O)COc2cccc(S(C)(=O)=O)c2)CO3)c(=O)c2ccccc21  530 µg/mL
